- ASSAY TARGET: type 1 human 5α-reductase (HRED1) (Homo sapiens)
- Sequence (P18405 whole entry): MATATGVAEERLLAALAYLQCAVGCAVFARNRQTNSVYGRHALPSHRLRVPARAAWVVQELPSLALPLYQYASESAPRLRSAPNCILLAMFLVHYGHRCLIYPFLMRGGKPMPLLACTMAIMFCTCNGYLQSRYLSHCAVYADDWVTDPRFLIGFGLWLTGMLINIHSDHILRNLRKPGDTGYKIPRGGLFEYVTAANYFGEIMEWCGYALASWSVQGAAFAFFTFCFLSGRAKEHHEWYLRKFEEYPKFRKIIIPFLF
- TEST DESCRIPTION: Cell free assay of 5α-reductase, microsomes of rat 1A cells expressing type 1 isoenzyme (HRED1);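 note: microsomes from rat 1A cells expressing human type 1 5α-reductase, conversion of radiolabeled testosterone to dihydrotestosterone quantified by thin layer chromatography with radioanalytic scanning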
- Type: biochemical
- Parameters: expressed in transfected cells; host or cells: rat 1A cells infected with pMV7 retrovirus; microsomes
- DETAILS: 100 uM; cell free assay; Table 3; read-out: HRED1 % Inhibition @ 100 uM
REPORTED PROPERTY: inhibition at 100 µM
Include the unit right after the number.

Here's what some known entries look like.
MOLECULE	inhibition at 100 µM
COc1cc(/C=C/C(=O)O)ccc1O	0%
COc1cc(C=CC=O)ccc1O [4-hydroxy-3-methoxycinnamaldehyde]	10%
COc1cc(CNC(=O)CCCC/C=C/C(C)C)ccc1O	0%

Next item in the queue.
Qu. Fill in reported inhibition at 100 µM for this entry: `COc1cc(/C=C/C(=O)CC(=O)/C=C/c2ccc(O)c(OC)c2)ccc1O`
Ans. 95%
